B1: POU domain, class 2, transcription factor 3, residues 186 to 260; numbered along this chain, Q9UKI9 (parent)
chain: SDLEELEKFAKTFKQRRIKLGFTQGDVGLAMGKLYGNDFSQTTISRFEALNLSFKNMCKLKPLLEKWLNDAESSP

- Variants of: B1
- PROTOCOL: abundance fitness (aPCA) (normalised: wild type 0, dead -1); higher = more abundant; growth selection in yeast, the domain comes from the species named
- MEASUREMENT SETUP: Homo sapiens
RECORDED ENDPOINT: abundance fitness
Could you respond with only the numeric value?

# annotated cases, reported abundance fitness shown
{"columns": ["MUTANT CODE", "abundance fitness"],
 "data": [
  ["L52W", -0.201],
  ["P62N", -0.24],
  ["R46A", 0.015],
  ["I44Y", -0.569],
  ["A71Y", -0.271],
  ["L64Y", -0.221],
  ["R46L", -0.05],
  ["L68K", -0.809]
]}

# return recorded abundance fitness for input `K55L` 0.001

Please list abundance fitness recorded for the variant `S74E` -0.172

Tell me measured abundance fitness for `N56V` please. -0.082

Find the measured abundance fitness of `S53G` and report it. 0.015

Write down abundance fitness measured for item `S45Y` -0.099
